Reported pKd values for the following binders.
- TESTED ON: T1, NHERF3_1, Q5T2W1
- T1 sequence (Q5T2W1 4-100, limits assumed, looked up): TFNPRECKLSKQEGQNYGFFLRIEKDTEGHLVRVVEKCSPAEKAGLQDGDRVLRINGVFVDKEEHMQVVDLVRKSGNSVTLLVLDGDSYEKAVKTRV
- TEST METHOD NOTES: holdup assay
- Design: key: below the threshold = too weak to quantify, mostly under pKd 3.1 to 4
- TEST CONTEXT: plain residues with an end cap or a label only (N-terminal biotin on a linker: ttds)
MEASURED PROPERTY: pKd

BINDER: RHTTSTETAV [HPV30-E6, P36809]
OBSERVED RESULT: 4.87
//
BINDER: RLQRRRETQV [HPV18-E6, P06463]
OBSERVED RESULT: 4.05
//
BINDER: RPLPRKVSQL [DOCK4, Q8N1I0]
OBSERVED RESULT: 4.21
//
BINDER: PVRVCEETSL [OTULIN, Q96BN8]
OBSERVED RESULT: 5.92
